Tested on: A549
Experiment: Antiproliferative activity against human A549 cells assessed as reduction in cell viability measured after 72 hrs by sulforhodamine B assay
Format: functional, cell-based
Conditions: A549, 72 h
pIC50: −log10 of the molar value.
Give true (1) when the value for pIC50 is at least 5. Give false (0) when it is less.

Cc1cc(O)cc(Oc2cc(C)cc(O)c2)c1 [DIORCINOL] ... false (0)
CO[C@@]1(C)N(C[C@@H](O)c2ccccc2)C(=O)c2cc3c4ccccc4n(C)c3c(=O)n21 ... false (0)
COc1cc(O)c2c(c1)C(=O)c1cc(C)cc(O)c1C2=O [PHYSCION] ... true (1)

Prompt line: Determine whether this molecule has pIC50 no lower than 5: CO[C@@]1(C)N(/C=C/c2ccccc2)C(=O)C2=C[C@@]3(C(=O)N(C)c4ccccc43)C(=O)N21
Response line: false (0)

Prompt line: Determine whether this molecule has pIC50 no lower than 5: C=C[C@@]1(C)C=C(C)[C@@H]2[C@@H]3[C@H](Oc4ccc(cc4)C[C@]4(OC)C[C@H](C(=O)N4)C(=O)[C@H]31)[C@@H]1[C@@H](C)C[C@@H](C)C[C@]12C
Response line: false (0)

Prompt line: Determine whether this molecule has pIC50 no lower than 5: CC1(C)CC[C@H](O)[C@@]2(C)[C@H]1CC=C1C(=O)OC[C@@]12O
Response line: true (1)

Prompt line: Determine whether this molecule has pIC50 no lower than 5: O=C1c2cc(O)cc(O)c2C(=O)c2c1cc1c(c2O)[C@@H]2CCO[C@@H]2O1
Response line: false (0)

Prompt line: Determine whether this molecule has pIC50 no lower than 5: O=c1ncc2ncn([C@@H]3O[C@@H](CO)[C@H](O)[C@@H]3O)c2[nH]1
Response line: false (0)

Prompt line: Determine whether this molecule has pIC50 no lower than 5: CC1=C([C@H](C)[C@@H](C)OC=O)C(=O)C2=C(C1=O)[C@@H]1O[C@H](C)[C@@H](C)c3c(C)c(O)cc(c31)O2 [CITRININ H1]
Response line: false (0)

Prompt line: Determine whether this molecule has pIC50 no lower than 5: Cc1cc(O)c2c(c1)C(=O)c1cccc(O)c1C2=O [CHRYSOPHANOL]
Response line: true (1)

Prompt line: Determine whether this molecule has pIC50 no lower than 5: CO[C@@]1(C)N(/C=C/c2ccccc2)C(=O)c2cc3c4ccccc4n(C)c3c(=O)n21
Response line: false (0)
